Sourced from patent US20120302609A1

# studyTarget: PKM2, human recombinant (Homo sapiens)
# Construct: purchased BPS 50295
# Sequence (P14618 whole entry): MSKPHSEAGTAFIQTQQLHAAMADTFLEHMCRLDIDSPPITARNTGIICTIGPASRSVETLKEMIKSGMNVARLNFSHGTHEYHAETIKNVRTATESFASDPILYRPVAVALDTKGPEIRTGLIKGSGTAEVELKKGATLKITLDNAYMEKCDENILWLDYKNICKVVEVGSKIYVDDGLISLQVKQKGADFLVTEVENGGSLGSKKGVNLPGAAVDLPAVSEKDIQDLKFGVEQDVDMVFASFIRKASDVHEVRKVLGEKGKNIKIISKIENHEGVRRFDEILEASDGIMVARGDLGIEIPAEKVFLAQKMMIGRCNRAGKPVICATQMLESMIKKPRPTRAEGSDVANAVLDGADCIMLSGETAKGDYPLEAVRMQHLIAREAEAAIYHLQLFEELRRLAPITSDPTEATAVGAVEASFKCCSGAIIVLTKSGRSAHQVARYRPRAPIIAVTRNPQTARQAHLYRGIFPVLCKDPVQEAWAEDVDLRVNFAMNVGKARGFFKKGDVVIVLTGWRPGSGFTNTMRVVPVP
# methodSummary: PKM2 enzymatic activity assay (Kinase-Glo Plus luminescence);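 note: percent increase over no-compound signal after subtracting the no-PKM2 background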
# Type: biochemical
# testConditions: 1 h, maximum percent activity; luminescence without compound = 0% activity; read-out: Max activity Group
observable: Emax

Solved entries:
Exam item: Return value of Emax for input CCS(=O)(=O)Nc1ccc(C2=NN(C(C)=O)C(c3ccc(OC)cc3)C2)cc1 (single isomer, unassigned) [Compound 3A] , no commentary.
Marked response: 130 to 200%

Exam item: # return recorded Emax for entry COc1ccc(C2CC(c3ccc(NS(=O)(=O)c4ccccc4)cc3)=NN2C(C)=O)cc1 (stereo not drawn) [Compound 16A]
Marked response: 130 to 200%

Exam item: Answer with the recorded Emax of COc1ccc([C@@H]2CC(c3ccc(NS(=O)(=O)c4ccc(F)cc4)cc3)=NN2C(C)=O)cc1 [Compound 13A] only.
Marked response: 130 to 200%

Exam item: Read the entry CC(=O)N1N=C(c2ccc3c(c2)CCN3S(C)(=O)=O)CC1c1ccc2c(c1)OCCO2 (stereo not drawn) [Compound 9A] and write its reported Emax.
Marked response: ≤ 130%

Exam item: Please list Emax recorded for the compound CC(=O)N1N=C(c2ccc(NS(=O)(=O)c3ccc(F)cc3)cc2)CC1c1ccc(F)cc1 (single isomer, unassigned) [Compound 35A]
Marked response: ≤ 130%

Next:
Exam item: Return the recorded Emax value; entry: COc1ccc(C2CC(c3ccc(NS(=O)(=O)c4ccc5c(c4)OCCO5)cc3)=NN2C(C)=O)cc1 (stereo not drawn) [Compound 7A]
Marked response: 130 to 200%

Exam item: Give me measured Emax, please, for this compound: COc1ccc(C2CC(c3ccc(NS(=O)(=O)c4ccc(C(F)(F)F)cc4)cc3)=NN2C(C)=O)cc1 (stereo not drawn) [Compound 21A]
Marked response: 130 to 200%

Exam item: Recall and state the measured Emax for CC(=O)N1N=C(c2ccc(NS(C)(=O)=O)cc2)CC1c1ccc2c(c1)OCO2 (stereo not drawn) [Compound 52A] .
Marked response: ≤ 130%

Exam item: Answer with the recorded Emax of COc1ccc(C2CC(c3ccc(NS(=O)(=O)c4ccc(OC)c(F)c4)cc3)=NN2C(C)=O)cc1 (stereo not drawn) [Compound 44A] only.
Marked response: 130 to 200%

Exam item: Consider the compound COc1ccc(C2CC(c3ccc(NS(=O)(=O)c4c(F)cccc4F)cc3)=NN2C(=O)c2ccco2)cc1 (stereo not drawn) [Compound 11A] and give its recorded Emax.
Marked response: ≥ 200%

Exam item: // Input: COc1ccc(C2CC(c3ccc(NS(=O)(=O)c4ccc(OC)cc4)cc3)=NN2C(C)=O)cc1 (racemic) [Compound 19A] . Output its Emax only.
Marked response: ≥ 200%

Exam item: Provide measured Emax value, entry: COc1ccc(C2CC(c3ccc(NS(=O)(=O)c4c(F)cccc4F)cc3)=NN2C(C)=O)cc1 (stereo not drawn) [Compound 5A]
Marked response: ≥ 200%
